measuredOn: Solute carrier organic anion transporter family member 1B1 (Homo sapiens, UniProt Q9Y6L6)
Sequence (Q9Y6L6 whole entry): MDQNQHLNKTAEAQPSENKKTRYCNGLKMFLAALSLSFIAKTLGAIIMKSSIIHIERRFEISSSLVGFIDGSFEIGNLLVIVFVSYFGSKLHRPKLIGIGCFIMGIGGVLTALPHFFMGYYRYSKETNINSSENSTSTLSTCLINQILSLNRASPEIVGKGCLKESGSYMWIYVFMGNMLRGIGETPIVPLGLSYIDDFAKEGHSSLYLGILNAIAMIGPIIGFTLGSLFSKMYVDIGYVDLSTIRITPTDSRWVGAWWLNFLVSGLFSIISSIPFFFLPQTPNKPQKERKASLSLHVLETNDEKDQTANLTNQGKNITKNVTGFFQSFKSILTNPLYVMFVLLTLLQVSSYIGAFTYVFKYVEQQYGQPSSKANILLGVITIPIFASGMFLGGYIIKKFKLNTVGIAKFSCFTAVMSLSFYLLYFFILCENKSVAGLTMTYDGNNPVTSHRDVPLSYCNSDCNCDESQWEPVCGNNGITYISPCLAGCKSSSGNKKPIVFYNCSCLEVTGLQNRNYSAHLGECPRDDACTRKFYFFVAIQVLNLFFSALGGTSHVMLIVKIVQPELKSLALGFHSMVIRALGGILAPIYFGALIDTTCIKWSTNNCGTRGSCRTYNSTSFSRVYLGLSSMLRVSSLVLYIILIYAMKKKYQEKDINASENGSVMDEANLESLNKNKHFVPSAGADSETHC
cond: chinese hamster, cho, 10 µM
Simple rule here: residual activity less than 80% is class 1, otherwise class 0.

compound	group
C[C@@H]1O[C@@H](O[C@H]2[C@H](O[C@H]3CC[C@]4(C)C5CC=C6[C@@H]7CC(C)(C)CC[C@]7(C(=O)O)CC[C@]6(C)[C@]5(C)CC[C@@H]4[C@]3(C)CO)OC[C@H](O)[C@@H]2O)[C@H](O)[C@H](O)[C@H]1O (some centres not stated)	class 0
COc1ccc(-c2coc3cc(OC)cc(OC)c3c2=O)cc1	class 0
CS(=O)(=O)c1ccc([C@@H](O)[C@@H](CO)NC(=O)C(Cl)Cl)cc1	class 0
C/C=C(/C)C(=O)O[C@@H]1Cc2c(ccc3ccc(=O)oc23)OC1(C)C	class 0
CC(C)NCC(O)c1ccc(O)c(O)c1.Cl (configuration not stated) [ISOPROTERENOL HYDROCHLORIDE]	class 0
CN1CCC(=C2c3ccccc3Sc3ccccc32)CC1.O=C(O)/C=C\C(=O)O [PIMETHIXENE MALEATE]	class 0
COc1cc(O)c(C(C)=O)c(OC)c1	class 0
COC(=O)C[C@H]1C(C)(C)C2(O)OC34CC2C(=O)[C@]1(C)C3CC[C@]1(C)C4=CC(=O)O[C@H]1c1ccoc1 (stereo partly drawn) [8beta-HYDROXYCARAPIN, 3,8-HEMIACETAL]	class 1
CC(=O)N[C@H]1[C@H]([C@@H](O)[C@H](O)CO)O[C@@](O)(C(=O)O)C[C@@H]1O	class 0
COC(=O)Nc1nc2ccc([S+]([O-])c3ccccc3)cc2[nH]1 (configuration not stated)	class 0
C[C@H]1C(=O)CC[C@@H]2[C@]1(C)CC[C@H]1[C@@]2(C)CC[C@@]2(C)[C@@H]3CC(C)(C)CC[C@]3(C)CC[C@]12C	class 0
CCCCOc1ccc(CC(=O)NO)cc1	class 0
COC(=O)C[C@H]1C(C)(C)C(OC(C)=O)[C@]2(O)C=C3C4CC(=O)O[C@@H](c5ccoc5)[C@]4(C)CCC3[C@@]1(C)C2=O (some centres not stated)	class 1
COc1c(OC)c2occc2c2oc(=O)ccc12	class 0
OCCN1C[C@H](O)[C@@H](O)[C@H](O)[C@H]1CO	class 0
CC(=O)N[C@@H](CCC(=O)O)C(=O)O	class 1
Cc1c(NC(C)C)c(=O)n(-c2ccccc2)n1C	class 0
N=C(N)NOCC[C@H](N)C(=O)O	class 0
C[C@]12C=CC(=O)C=C1CC[C@@H]1[C@@H]2CC[C@]2(C)C(=O)CC[C@@H]12	class 0
Cn1c(=O)c2c(ncn2CCO)n(C)c1=O	class 1
CN(C)CCCN1c2ccccc2CCc2ccc(Cl)cc21.Cl [CLOMIPRAMINE HYDROCHLORIDE]	class 1
CN1[C@@H]2CC[C@H]1C[C@@H](OC(=O)[C@H](CO)c1ccccc1)C2	class 0
CC1CC(OC(=O)C(O)c2ccccc2)CC(C)(C)N1C.Cl (configuration not stated) [EUCATROPINE HYDROCHLORIDE]	class 0
CCCCCCOc1ccccc1C(N)=O [EXALAMIDE]	class 0
C=C[C@H]1C[N@@]2CC[C@H]1C[C@@H]2[C@@H](O)c1ccnc2ccccc12	class 0

###

measuredOn: Solute carrier organic anion transporter family member 1B1 (Homo sapiens)
cond: chinese hamster, cho, 10 µM
# reported residual activity; entries follow

molecule	residual activity / %
NNC(=O)c1ccncc1 [ISONIAZID]	88.4
Cl.NCCc1ccc(O)c(O)c1 [DOPAMINE HYDROCHLORIDE]	66.46
CC(C)=CCC[C@@H](C)[C@H]1CC[C@@]2(C)C3=C(CC[C@]12C)[C@@]1(C)CC[C@H](O)C(C)(C)[C@@H]1CC3 [LANOSTEROL]	53.97
N#Cc1c(Cl)c(Cl)c(Cl)c(C#N)c1Cl [CHLOROTHALONIL]	92.97
COc1cc2c(cc1O)C(Cc1ccc(O)cc1)N(C)CC2 (stereo not given) [METHYL COCLAURINE]	96.63
O=C/C=C/c1ccc(O)cc1 [p-HYDROXYCINNAMALDEHYDE]	139.6
O=C([O-])CF.[Na+] [SODIUM FLUOROACETATE]	112.7
CC(=O)N[C@@H](CC(=O)O)C(=O)O	127.8163
COc1c2c(cc3occ(-c4ccc5c(c4)OCO5)c(=O)c13)OC(C)(C)C=C2 [METHYL ROBUSTONE]	133
CCn1cc(C(=O)O)c(=O)c2cnc(N3CCCC3)nc21 [PIROMIDIC ACID]	79.57

###

measuredOn: Solute carrier organic anion transporter family member 1B3 (Homo sapiens, UniProt Q9NPD5)
Sequence (Q9NPD5 whole entry): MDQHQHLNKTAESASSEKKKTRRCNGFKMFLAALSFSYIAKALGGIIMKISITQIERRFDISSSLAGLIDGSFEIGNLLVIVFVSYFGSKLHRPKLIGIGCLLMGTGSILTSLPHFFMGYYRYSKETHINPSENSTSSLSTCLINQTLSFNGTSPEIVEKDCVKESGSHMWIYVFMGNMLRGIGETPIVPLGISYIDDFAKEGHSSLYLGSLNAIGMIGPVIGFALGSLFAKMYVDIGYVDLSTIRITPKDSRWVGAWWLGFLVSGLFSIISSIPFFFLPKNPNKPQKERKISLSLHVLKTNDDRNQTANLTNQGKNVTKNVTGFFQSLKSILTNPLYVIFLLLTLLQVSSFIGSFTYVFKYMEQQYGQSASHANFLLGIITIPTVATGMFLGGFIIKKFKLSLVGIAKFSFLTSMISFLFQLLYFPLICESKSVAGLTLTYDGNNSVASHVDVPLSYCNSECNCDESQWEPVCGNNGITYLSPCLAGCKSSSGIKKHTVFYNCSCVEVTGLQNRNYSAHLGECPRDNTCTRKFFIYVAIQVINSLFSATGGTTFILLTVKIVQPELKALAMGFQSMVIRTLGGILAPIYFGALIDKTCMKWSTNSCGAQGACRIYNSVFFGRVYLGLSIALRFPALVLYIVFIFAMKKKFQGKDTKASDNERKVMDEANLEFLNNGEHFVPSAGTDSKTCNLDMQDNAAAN
cond: chinese hamster, cho, 10 µM
Please assign Condition not met whenever residual activity is at or above 90%, and Condition met whenever it is below.

compound	group
COC(=O)CC[C@@H](C)[C@H]1CC[C@H]2[C@@H]3[C@H](O)C[C@@H]4C[C@H](O)CC[C@]4(C)[C@H]3C[C@H](O)[C@]12C	Condition met
CC1=CC(=O)[C@H]2C(C)(C)CCC[C@]2(C)[C@@]1(O)CCc1ccoc1	Condition met
COc1cc2c(cc1-c1coc3c4c(c(OC)cc3c1=O)OC(C)(C)C=C4)OCO2	Condition not met
C[C@H]1O[C@@H](O[C@H]2[C@@H](O)C[C@H](O[C@H]3[C@@H](O)C[C@H](O[C@H]4CC[C@@]5(C)[C@H](CC[C@@H]6[C@@H]5CC[C@]5(C)[C@@H](C7=CC(=O)OC7)CC[C@]65O)C4)O[C@@H]3C)O[C@@H]2C)C[C@H](O)[C@@H]1O	Condition met
CC(=O)O[C@H]1C[C@@]2(C)[C@@H](C[C@@H](O)[C@H]3[C@@]4(C)CC[C@@H](O)[C@@H](C)[C@@H]4CC[C@@]32C)/C1=C(\CCC=C(C)C)C(=O)O	Condition met
CCC(=O)O[C@H]1CC[C@H]2[C@@H]3CCc4cc(O)ccc4[C@H]3CC[C@]12C [ESTRADIOL PROPIONATE]	Condition not met
CC(CN(C)C)CN1c2ccccc2CCc2ccccc21.O=C(O)/C=C\C(=O)O (configuration not stated) [TRIMIPRAMINE MALEATE]	Condition not met
C[N+](C)(C)CCO.[Cl-] [CHOLINE CHLORIDE]	Condition not met
CC(=O)O[C@@H]1C[C@@H]2C(C)(C)[C@H](O)C=C[C@@]2(C)[C@@H]2CC[C@@]3(C)C(=CC(=O)O[C@@H]3c3ccoc3)[C@@]12C	Condition met
CN(C)[C@@H]1C(O)=C(C(N)=O)C(=O)[C@@]2(O)C(O)=C3C(=O)c4c(O)ccc(Cl)c4[C@@](C)(O)[C@H]3C[C@@H]12.Cl [CHLORTETRACYCLINE HYDROCHLORIDE]	Condition not met

###

measuredOn: Solute carrier organic anion transporter family member 1B3 (Homo sapiens, UniProt Q9NPD5)
cond: chinese hamster, cho, 10 µM

compound	unitDescriptor	residual activity
COC(=O)Nc1nc2ccc([S+]([O-])c3ccccc3)cc2[nH]1 (centres undefined) [OXFENDAZOLE]	%	114.2
C#C[C@]1(O)CC[C@H]2[C@@H]3CCc4cc(O)ccc4[C@H]3CC[C@@]21C [ETHINYL ESTRADIOL]	%	61.16
COc1ccc(-c2cc(=O)c3ccc(OC)cc3o2)cc1 [4,7-DIMETHOXYFLAVONE]	%	87.07
CC[C@H]1OC(=O)[C@H](C)[C@@H](O[C@H]2C[C@@](C)(OC)[C@@H](O)[C@H](C)O2)[C@H](C)[C@@H](O[C@@H]2O[C@H](C)C[C@H](N(C)C)[C@H]2O)[C@](C)(O)C[C@@H](C)/C(=N\OCOCCOC)[C@H](C)[C@@H](O)[C@]1(C)O [ROXITHROMYCIN]	%	77.16
Cc1cc(C)cc(OCC2CNC(=O)O2)c1 (centres undefined) [METAXALONE]	%	93.18
COc1cccc(-c2cc(=O)c3cc(OC)ccc3o2)c1 [6,3'-DIMETHOXYFLAVONE]	%	120.4
CC(=O)Oc1ccc2c(c1)CC[C@@H]1[C@@H]2CC[C@]2(C)[C@@H](OC(C)=O)CC[C@@H]12	%	113.7
Clc1ccc(CO/N=C(\Cn2ccnc2)c2ccc(Cl)cc2Cl)c(Cl)c1.O=[N+]([O-])O [OXICONAZOLE NITRATE]	%	122.3
COC(=O)C[C@H]1C2(C)CC34OC5(C)O[C@@]6([C@H](OC(C)=O)C(OC(C)=O)[C@]7(C)C(/C(=C(/O)C(C)C)C(=O)O[C@H]7c7ccoc7)[C@@]6(O5)[C@H](OC(C)=O)[C@@]3(O)C2OC(=O)C(C)C)[C@]14C (some centres undefined) [BUSSEIN]	%	5.392
NC(=O)c1cc[n+](CC2=C(C(=O)[O-])N3C(=O)[C@@H](NC(=O)[C@@H](c4ccccc4)S(=O)(=O)[O-])[C@H]3SC2)cc1.[Na+] [CEFSULODIN SODIUM]	%	101.2
COc1cc(/C=C/C(=O)O)ccc1O [FERULATE]	%	82.81
C[C@@H]1O[C@@H](O[C@H]2[C@H](O[C@H]3CC[C@]4(C)C5CC=C6[C@@H]7CC(C)(C)CC[C@]7(C(=O)O)CC[C@]6(C)[C@]5(C)CC[C@@H]4[C@]3(C)CO)OC[C@H](O)[C@@H]2O)[C@H](O)[C@H](O)[C@H]1O (some centres undefined)	%	112.9
CC(Cc1cccc(C(F)(F)F)c1)NCCOC(=O)c1ccccc1.Cl (centres undefined) [BENFLUOREX HYDROCHLORIDE]	%	87.71
CC(=O)O[C@H]1CC[C@@]2(C)[C@H](CC[C@@H]3[C@@H]2CC[C@]2(C)[C@@H]4[C@H](C[C@@H]32)O[C@]2(CC[C@@H](C)CO2)[C@H]4C)C1	%	92.75

Origin of values: ChEMBL document CHEMBL3039007
